These compounds were tested on Vasopressin V2 receptor (Homo sapiens, UniProt P30518); Ki is the recorded read-out.
Sequence (P30518 whole entry): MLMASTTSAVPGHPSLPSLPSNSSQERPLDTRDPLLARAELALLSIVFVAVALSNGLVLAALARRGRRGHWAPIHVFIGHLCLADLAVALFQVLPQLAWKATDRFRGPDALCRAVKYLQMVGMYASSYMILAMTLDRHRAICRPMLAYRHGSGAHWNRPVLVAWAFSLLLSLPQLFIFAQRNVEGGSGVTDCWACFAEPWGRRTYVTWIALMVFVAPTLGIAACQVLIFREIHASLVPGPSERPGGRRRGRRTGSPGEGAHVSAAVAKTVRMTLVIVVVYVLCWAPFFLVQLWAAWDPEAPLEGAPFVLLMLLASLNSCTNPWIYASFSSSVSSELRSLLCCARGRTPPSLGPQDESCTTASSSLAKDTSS

[
  {
    "compound": "CCN(CC)c1ccc2c(-c3ccc(S(=O)(=O)NCCOCCOCCOCCC(=O)NC4CCCN(C(=O)c5ccc(NC(=O)c6ccccc6-c6ccccc6)cc5)c5ccccc54)cc3S(=O)(=O)[O-])c3ccc(=[N+](CC)CC)cc-3oc2c1 (stereo not drawn)",
    "target": "Vasopressin V2 receptor (Homo sapiens, UniProt P30518)",
    "Ki": "16.8 nM"
  },
  {
    "compound": "CCN1/C(=C/C=C/C=C/C2=[N+](CC)c3ccc(S(=O)(=O)[O-])cc3C2(C)C)C(C)(CCCC(=O)NCCOCCOCCOCCn2cc(CNC(=O)CCC(=O)NC3CCCN(C(=O)c4ccc(NC(=O)c5ccccc5-c5ccccc5)cc4)c4ccccc43)nn2)c2cc(S(=O)(=O)O)ccc21 (stereo not drawn)",
    "target": "Vasopressin V2 receptor (Homo sapiens, UniProt P30518)",
    "Ki": "9.02 nM"
  },
  {
    "compound": "CCN(CC)c1ccc2c(-c3ccc(S(=O)(=O)NCCOCCOCCOCCn4cc(CNC(=O)CCC(=O)NC5CCCN(C(=O)c6ccc(NC(=O)c7ccccc7C)cc6)c6ccccc65)nn4)cc3S(=O)(=O)[O-])c3ccc(=[N+](CC)CC)cc-3oc2c1 (stereo not drawn)",
    "target": "Vasopressin V2 receptor (Homo sapiens, UniProt P30518)",
    "Ki": "54.3 nM"
  }
]

###

Target: Vasopressin V2 receptor (Homo sapiens)
Experiment: Antagonist activity at human vasopressin V2 receptor expressed in CHO cells assessed as inhibition of AVP-induced cAMP accumulation after 30 mins by TR-FRET based HTRF assay
Type: functional, cell-based
One threshold, 0.8 nM, splits the recorded Kb values: lower ones are 1 (yes), equal or higher ones are 0 (no).

[
  {
    "compound": "CCN(CC)c1ccc2c(-c3ccc(S(=O)(=O)NC4CCCN(C(=O)c5ccc(NC(=O)c6ccccc6-c6ccccc6)cc5)c5ccccc54)cc3S(=O)(=O)[O-])c3ccc(=[N+](CC)CC)cc-3oc2c1 (stereo not given)",
    "label-value": "0 (no)"
  },
  {
    "compound": "CCN1/C(=C/C=C/C=C/C2=[N+](CC)c3ccc(S(=O)(=O)[O-])cc3C2(C)C)C(C)(CCCC(=O)NCCOCCOCCOCCn2cc(CNC(=O)CCC(=O)NC3CCCN(C(=O)c4ccc(NC(=O)c5ccccc5-c5ccccc5)cc4)c4ccccc43)nn2)c2cc(S(=O)(=O)O)ccc21 (stereo not given)",
    "label-value": "1 (yes)"
  },
  {
    "compound": "CCN(CC)c1ccc2c(-c3ccc(S(=O)(=O)N4CCN(CCC(=O)NC5CCCN(C(=O)c6ccc(NC(=O)c7ccccc7-c7ccccc7)cc6)c6ccccc65)CC4)cc3S(=O)(=O)[O-])c3ccc(=[N+](CC)CC)cc-3oc2c1 (stereo not given)",
    "label-value": "0 (no)"
  },
  {
    "compound": "CCN(CC)c1ccc2c(-c3ccc(S(=O)(=O)[O-])cc3S(=O)(=O)NCCOCCOCCOCCn3cc(CNC(=O)CCC(=O)NC4CCCN(C(=O)c5ccc(NC(=O)c6ccccc6C)cc5)c5ccccc54)nn3)c3ccc(=[N+](CC)CC)cc-3oc2c1 (stereo not given)",
    "label-value": "0 (no)"
  }
]

###

Each entry below carries its recorded Ki.
Target: UniProtKB P30559
Assay: Binding affinity to oxytocin receptor

[
  {
    "molecule": "Cc1ccccc1C(=O)Nc1ccc(C(=O)N2CCCCc3ccccc32)cc1",
    "Ki / nM": 30
  },
  {
    "molecule": "Cc1ccccc1C(=O)Nc1ccc(C(=O)N2CCCC(N(C)C)c3ccccc32)cc1 (stereo not drawn) [MOZAVAPTAN]",
    "Ki / nM": 660
  },
  {
    "molecule": "O=C(Nc1ccc(C(=O)N2CCCCc3ccccc32)cc1)c1ccccc1-c1ccccc1",
    "Ki / nM": 63
  }
]

###

Biological target: Vasopressin V2 receptor (Homo sapiens)
Assay: Agonist activity at human vasopressin V2 receptor expressed in CHO cells assessed as cAMP accumulation after 30 mins by TR-FRET based HTRF assay
Format: functional, cell-based
Calls of active or inactive are those of the source. The rule behind the calls is not given here.

[
  {
    "compound": "CCN(CC)c1ccc2c(-c3ccc(S(=O)(=O)N4CCN(CCC(=O)NC5CCCN(C(=O)c6ccc(NC(=O)c7ccccc7-c7ccccc7)cc6)c6ccccc65)CC4)cc3S(=O)(=O)[O-])c3ccc(=[N+](CC)CC)cc-3oc2c1 (configuration not stated)",
    "target": "Vasopressin V2 receptor (Homo sapiens)",
    "Activity": "inactive"
  },
  {
    "compound": "CCN(CC)c1ccc2c(-c3ccc(S(=O)(=O)[O-])cc3S(=O)(=O)NCCOCCOCCOCCn3cc(CNC(=O)CCC(=O)NC4CCCN(C(=O)c5ccc(NC(=O)c6ccccc6C)cc5)c5ccccc54)nn3)c3ccc(=[N+](CC)CC)cc-3oc2c1 (configuration not stated)",
    "target": "Vasopressin V2 receptor (Homo sapiens)",
    "Activity": "inactive"
  }
]

###

Molecular target: Vasopressin V2 receptor (Homo sapiens, UniProt P30518)
Assay: Antagonist activity at human vasopressin V2 receptor expressed in CHO cells assessed as inhibition of AVP-induced cAMP accumulation after 30 mins by TR-FRET based HTRF assay
Type: functional, cell-based
measurement-kind: inhibition

[
  {
    "compound": "CCN(CC)c1ccc2c(-c3ccc(S(=O)(=O)NCCOCCOCCOCCn4cc(CNC(=O)CCC(=O)NC5CCCN(C(=O)c6ccc(NC(=O)c7ccccc7-c7ccccc7)cc6)c6ccccc65)nn4)cc3S(=O)(=O)[O-])c3ccc(=[N+](CC)CC)cc-3oc2c1 (stereo not given)",
    "result": "Dose-dependent effect"
  },
  {
    "compound": "CCN(CC)c1ccc2c(-c3ccc(S(=O)(=O)[O-])cc3S(=O)(=O)NCCOCCOCCOCCn3cc(CNC(=O)CCC(=O)NC4CCCN(C(=O)c5ccc(NC(=O)c6ccccc6C)cc5)c5ccccc54)nn3)c3ccc(=[N+](CC)CC)cc-3oc2c1 (stereo not given)",
    "result": "Dose-dependent effect"
  },
  {
    "compound": "CCN(CC)c1ccc2c(-c3ccc(S(=O)(=O)[O-])cc3S(=O)(=O)NCCOCCOCCOCCn3cc(CNC(=O)CCC(=O)NC4CCCN(C(=O)c5ccc(NC(=O)c6ccccc6-c6ccccc6)cc5)c5ccccc54)nn3)c3ccc(=[N+](CC)CC)cc-3oc2c1 (stereo not given)",
    "result": "Dose-dependent effect"
  },
  {
    "compound": "CCN(CC)c1ccc2c(-c3ccc(S(=O)(=O)NCCCCC(=O)NC4CCCN(C(=O)c5ccc(NC(=O)c6ccccc6-c6ccccc6)cc5)c5ccccc54)cc3S(=O)(=O)[O-])c3ccc(=[N+](CC)CC)cc-3oc2c1 (stereo not given)",
    "result": "Dose-dependent effect"
  },
  {
    "compound": "Cc1ccccc1C(=O)Nc1ccc(C(=O)N2CCCC(N(C)C)c3ccccc32)cc1 (stereo not given)",
    "result": "Dose-dependent effect"
  }
]

###

pKi values by entry
Target: Oxytocin receptor (Homo sapiens, UniProt P30559)
Sequence (P30559 whole entry): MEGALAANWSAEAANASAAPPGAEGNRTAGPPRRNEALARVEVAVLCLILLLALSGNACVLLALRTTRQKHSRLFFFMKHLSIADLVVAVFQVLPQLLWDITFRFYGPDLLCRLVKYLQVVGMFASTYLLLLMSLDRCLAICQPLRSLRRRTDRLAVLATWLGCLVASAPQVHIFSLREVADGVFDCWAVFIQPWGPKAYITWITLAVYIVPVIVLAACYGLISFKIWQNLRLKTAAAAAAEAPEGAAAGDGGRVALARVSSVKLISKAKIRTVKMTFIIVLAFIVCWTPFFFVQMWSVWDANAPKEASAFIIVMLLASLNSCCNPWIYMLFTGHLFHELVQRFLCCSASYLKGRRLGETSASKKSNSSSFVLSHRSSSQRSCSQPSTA
Assay: Displacement of [3H]-AVP from human oxytocin receptor expressed in CHO cells after 30 mins
Assay type: cell-based
pKi: −log10 of the molar value.
measurement-kind: pKi

[
  {
    "compound": "CCN(CC)c1ccc2c(-c3ccc(S(=O)(=O)NCCOCCOCCOCCn4cc(CNC(=O)CCC(=O)NC5CCCN(C(=O)c6ccc(NC(=O)c7ccccc7C)cc6)c6ccccc65)nn4)cc3S(=O)(=O)[O-])c3ccc(=[N+](CC)CC)cc-3oc2c1 (configuration not stated)",
    "target": "Oxytocin receptor (Homo sapiens, UniProt P30559)",
    "value-modifier": "=",
    "measured-number": 6.31
  },
  {
    "compound": "CCN(CC)c1ccc2c(-c3ccc(S(=O)(=O)NCCOCCOCCOCCn4cc(CNC(=O)CCC(=O)NC5CCCN(C(=O)c6ccc(NC(=O)c7ccccc7-c7ccccc7)cc6)c6ccccc65)nn4)cc3S(=O)(=O)[O-])c3ccc(=[N+](CC)CC)cc-3oc2c1 (configuration not stated)",
    "target": "Oxytocin receptor (Homo sapiens, UniProt P30559)",
    "value-modifier": "<",
    "measured-number": 5.00
  },
  {
    "compound": "CCN1/C(=C/C=C/C=C/C2=[N+](CC)c3ccc(S(=O)(=O)[O-])cc3C2(C)C)C(C)(CCCC(=O)NCCOCCOCCOCCn2cc(CNC(=O)CCC(=O)NC3CCCN(C(=O)c4ccc(NC(=O)c5ccccc5-c5ccccc5)cc4)c4ccccc43)nn2)c2cc(S(=O)(=O)O)ccc21 (configuration not stated)",
    "target": "Oxytocin receptor (Homo sapiens, UniProt P30559)",
    "value-modifier": "=",
    "measured-number": 6.09
  },
  {
    "compound": "CCN1/C(=C/C=C/C=C/C2=[N+](CC)c3ccc(S(=O)(=O)[O-])cc3C2(C)C)C(C)(CCCC(=O)NCCn2cc(CNC(=O)CCC(=O)NC3CCCN(C(=O)c4ccc(NC(=O)c5ccccc5-c5ccccc5)cc4)c4ccccc43)nn2)c2cc(S(=O)(=O)O)ccc21 (configuration not stated)",
    "target": "Oxytocin receptor (Homo sapiens, UniProt P30559)",
    "value-modifier": "=",
    "measured-number": 6.74
  },
  {
    "compound": "O=C(CCC(=O)NC1CCCN(C(=O)c2ccc(NC(=O)c3ccccc3-c3ccccc3)cc2)c2ccccc21)NCc1cn(CCOCCOCCOCCNC(=S)Nc2ccc(-c3c4ccc(=O)cc-4oc4cc(O)ccc34)c(C(=O)O)c2)nn1 (configuration not stated)",
    "target": "Oxytocin receptor (Homo sapiens, UniProt P30559)",
    "value-modifier": "=",
    "measured-number": 6.18
  },
  {
    "compound": "CCN(CC)c1ccc2c(-c3ccc(S(=O)(=O)[O-])cc3S(=O)(=O)NCCOCCOCCOCCn3cc(CNC(=O)CCC(=O)NC4CCCN(C(=O)c5ccc(NC(=O)c6ccccc6-c6ccccc6)cc5)c5ccccc54)nn3)c3ccc(=[N+](CC)CC)cc-3oc2c1 (configuration not stated)",
    "target": "Oxytocin receptor (Homo sapiens, UniProt P30559)",
    "value-modifier": "<",
    "measured-number": 5.00
  },
  {
    "compound": "CCN(CC)c1ccc2c(-c3ccc(S(=O)(=O)[O-])cc3S(=O)(=O)NCCOCCOCCOCCn3cc(CNC(=O)CCC(=O)NC4CCCN(C(=O)c5ccc(NC(=O)c6ccccc6C)cc5)c5ccccc54)nn3)c3ccc(=[N+](CC)CC)cc-3oc2c1 (configuration not stated)",
    "target": "Oxytocin receptor (Homo sapiens, UniProt P30559)",
    "value-modifier": "=",
    "measured-number": 6.51
  }
]

Each recorded value in this set is attributed to ChEMBL document CHEMBL2169837.
